Origin of the recorded values: PubChem BioAssay AID2289

# assay.notes: qHTS Assay for Modulators of miRNAs and/or Inhibitors of miR-21; also: potency is read from the fitted curve at half-maximal effect; nearly all actives have a fitted effect of over 55% in size
# measurement.setup: HeLa miR-21-FLuc reporter, luciferase luminescence, 48 h; actives lower the signal
About 3,300 (0.97%) of roughly 340,000 compounds were called active. Another 9% or so got no clear call; they are omitted. The list shows a part of the results.
endpoint.label: Potency

Below, 8 molecules whose answers are already recorded.
Cc1cc(Cl)c2oc(C(=O)N(C)Cc3ccon3)c(C)c2c1 | 4.65 µM (active)
Cc1ccc2c(C)c(C(=O)N3CCCC(C(N)=O)C3)oc2c1C (stereo unspecified) | 13.1 µM (active)
CCSc1cc(C)nc2c(-c3ccccc3)cnn12 | 0.656 µM (active)
Cc1nc(NC(=S)NC(=O)c2cccs2)ccc1Br | 14.7 µM (active)
Cc1nc(N)sc1-c1csc(Nc2ncccn2)n1 | 2.93 µM (active)
O=[N+]([O-])c1cccnc1NCCc1c[nH]c2ccccc12 | 4.14 µM (active)
CC(C)(C)n1cnc2cc(NCc3ccc(Br)cc3)ccc21 | 4.14 µM (active)
c1ccc(-c2csc(Nc3ncccn3)n2)cc1 | 0.208 µM (active)

Task: Name the reported Potency value associated with the molecule Cc1cccc(Nc2nc(-c3ccc(O)c(O)c3)cs2)n1
Output: 8.26 µM (active)

Task: Same for COc1ccc(CNc2ncccc2[N+](=O)[O-])cc1
Output: 18.5 µM (active)

Task: Same for Cc1ccccc1SCCNC(=O)c1ccccc1Br
Output: 16.5 µM (active)

Task: Please give the result for S=C(N/N=C/c1ccc(Cl)cc1)N1CCOCC1 too.
Output: 9.27 µM (active)

Task: Thanks! And CCOC(=O)c1c(C)[nH]c(C(=O)COC(=O)CNC(=O)c2ccccc2Cl)c1C ?
Output: 13.1 µM (active)

Task: Consider next the molecule O=C(COC(=O)C1CC1)Nc1ccc(N=Nc2ccccc2)cc1 in the same way.
Output: 1.85 µM (active)

Task: What would you report for O=C(COc1ccc(Br)cc1Br)NC(=O)NC1CCCC1 ?
Output: 5.21 µM (active)

Task: Also, CCc1ccc2nc(N3C(=O)C(O)=C(C(=O)c4ccco4)C3c3cccs3)sc2c1 (stereo unspecified) please.
Output: 6.56 µM (active)
